TEST_TARGET: SUMO (Homo sapiens)
Sequence (Q9UBT2 1-640): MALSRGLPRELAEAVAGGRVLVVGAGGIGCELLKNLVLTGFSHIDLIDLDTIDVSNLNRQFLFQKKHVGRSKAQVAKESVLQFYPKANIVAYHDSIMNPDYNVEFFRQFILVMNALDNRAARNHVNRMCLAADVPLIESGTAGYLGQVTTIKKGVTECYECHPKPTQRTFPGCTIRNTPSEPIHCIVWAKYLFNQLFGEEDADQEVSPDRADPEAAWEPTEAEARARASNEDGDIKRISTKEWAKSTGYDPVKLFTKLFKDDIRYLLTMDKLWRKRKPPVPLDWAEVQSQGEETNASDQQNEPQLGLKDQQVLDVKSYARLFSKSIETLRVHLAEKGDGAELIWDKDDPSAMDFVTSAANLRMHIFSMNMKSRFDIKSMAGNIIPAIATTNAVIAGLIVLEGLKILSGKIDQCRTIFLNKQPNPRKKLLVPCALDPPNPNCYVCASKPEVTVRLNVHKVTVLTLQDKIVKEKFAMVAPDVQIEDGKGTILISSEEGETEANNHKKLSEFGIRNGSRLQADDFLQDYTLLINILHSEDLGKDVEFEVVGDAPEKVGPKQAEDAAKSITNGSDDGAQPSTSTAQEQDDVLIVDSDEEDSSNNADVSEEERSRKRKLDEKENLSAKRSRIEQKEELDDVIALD
Sequence (Q9UBE0 1-346 partner): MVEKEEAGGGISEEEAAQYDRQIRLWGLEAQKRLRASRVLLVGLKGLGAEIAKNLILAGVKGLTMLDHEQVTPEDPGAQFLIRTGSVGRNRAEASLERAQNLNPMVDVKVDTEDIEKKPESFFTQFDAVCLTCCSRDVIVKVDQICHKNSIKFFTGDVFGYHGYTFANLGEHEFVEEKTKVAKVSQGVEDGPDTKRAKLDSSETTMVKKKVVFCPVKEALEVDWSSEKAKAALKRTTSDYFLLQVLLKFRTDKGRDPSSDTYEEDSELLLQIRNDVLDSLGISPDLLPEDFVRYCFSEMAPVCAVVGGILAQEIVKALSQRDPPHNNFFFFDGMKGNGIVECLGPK
METHOD_NOTES: SUMO activity (Table I, biological activities)
Format: biochemical
Parameters: key: + (less active); ++ (active); +++ (most active)
ASSAY_METRIC: SUMO

See these solved cases before continuing.
| MOLECULE | TEST_TARGET | SUMO |
| --- | --- | --- |
| COC(=O)C1=C(C(=O)OC)C2(C(Oc3ccccc3)c3ccc(CN4CCOCC4)cc3)C=CC1O2 (stereo not shown) | SUMO (Homo sapiens) | ++ |
| COC(=O)C1=C(C(=O)NC2CCN(C(=O)Cc3ccccc3)CC2)C2C=CC1(C(Cc1ccccc1)Nc1ccccc1)O2 (stereo not shown) | SUMO (Homo sapiens) | ++ |
| COC(=O)C1=C(C(=O)NC2CCN(C(=O)CN(C)C)CC2)C2C=CC1(C(Cc1ccccc1)Nc1ccccc1)O2 (stereo not shown) | SUMO (Homo sapiens) | ++ |
| COC(=O)C1=C(C(=O)NC2CCN(C(=O)c3ccc(F)cc3)CC2)C2CCC1(C(Cc1ccccc1)Nc1ccccc1)O2 (stereo not shown) | SUMO (Homo sapiens) | + |
| COC(=O)C1=C(C(=O)OC)C2(C(Nc3ccccc3)C3CCC3)C=CC1O2 (stereo not shown) | SUMO (Homo sapiens) | ++ |
| COC(=O)C1=C(C(=O)Nc2ccc(C)c(F)c2)C2C=CC1(C(Cc1ccccc1)Nc1ccc(F)cc1)O2 (stereo not shown) | SUMO (Homo sapiens) | ++ |

Let us examine a further case.
Find the recorded SUMO belonging to CCOC(=O)C1=CC2OC1(C(c1ccccc1)N(C(=O)C(F)(F)F)c1ccccc1)c1ccccc12 (stereo not shown) and report it.
+
